# credit: patent US10000471B2

- System: TNFα release in d-U937 cells
- ASSAY_NOTES: LPS-induced TNFα release in d-U937 cells
- Type: cell-based, human
- TEST_CONTEXT: Homo sapiens, dU937, relative to 10 μg/mL BIRB796, read-out: LPS/TNFα REC50 d-U937
REPORTED_ENDPOINT: pEC50
Friendly reminder that pEC50 comes from taking -log10 of the concentration in mol/L.

Here's what some known entries look like.
- COc1ccc(-n2nc(C(C)(C)C)cc2NC(=O)Nc2ccc(OCc3ccnc(NC(=O)N4CCCC4)c3)c(Cl)c2Cl)cc1 [Example 20]: 7.16
- COCC(=O)Nc1cc(Oc2ccc(NC(=O)Nc3cc(C(C)(C)C)nn3-c3ccc(C)cc3)c(C(F)(F)F)c2)ccn1 [Example 3]: 8.96
- COc1ccc(-n2nc(C(C)(C)C)cc2NC(=O)Nc2ccc(Oc3ccnc(NC(=O)NC4CC4)c3)c(C#N)c2Cl)cc1 [Example 78]: 8.80

Let us move to another entry and its pEC50.
IN: Quickly give me recorded pEC50 for CNC(=O)Nc1cc(Oc2ccc(NC(=O)Nc3cc(C(C)(C)C)nn3-c3ccc(OC)cc3)c3cccnc23)ccn1 [Example 58]
OUT: 8.68

----------
- Tested on: IL-8 release in d-U937 cells
- ASSAY_NOTES: LPS-induced IL-8 release in d-U937 cells
- Format: cell-based, human
- TEST_CONTEXT: Homo sapiens, dU937
pIC50: −log10 of the molar value.
Please mark true (1) if the recorded pIC50 is equal to or greater than 8, and false (0) if it falls below.

• COCC(=O)Nc1cc(Oc2cc(Cl)c(NC(=O)Nc3cc(C(C)(C)C)nn3-c3ccc(C)cc3)cc2F)ccn1 [Example 38] = false (0)
• COCC(=O)Nc1nccc(Oc2ccc(NC(=O)Nc3cc(C(C)(C)C)nn3-c3ccc(CO)cc3)c(Cl)c2Cl)n1 [Example 94] = false (0)
• CNC(=O)Nc1nccc(Oc2ccc(NC(=O)Nc3cc(C(C)(C)C)nn3-c3ccc(C)cc3)c(Cl)c2Cl)n1 [Example 96] = true (1)
• COCC(=O)Nc1cc(Oc2ccc(NC(=O)Nc3cc(C(C)(C)C)nn3-c3ccc(C)cc3)cc2Cl)ccn1 [Example 29] = false (0)
• CNC(=O)Nc1cc(Oc2ccc(NC(=O)Nc3cc(C(C)(C)C)nn3-c3ccc(C(=O)OC)cc3)c(Cl)c2Cl)ccn1 [Example 59] = true (1)
• CN(C)[C@@H]1CCN(C(=O)Nc2cc(Oc3ccc(NC(=O)Nc4cc(C(C)(C)C)nn4-c4ccc(O)cc4)c(Cl)c3Cl)ccn2)C1 [Example 11] = true (1)

IN: Is it the case that COCC(=O)Nc1cc(Oc2ccc(NC(=O)Nc3cc(C(C)(C)C)nn3-c3ccc(O)cc3)c(Cl)c2Cl)ccn1 [Example 41] has pIC50 reaching or exceeding 8?
OUT: true (1)

IN: Item CC(C)(C)c1cc(NC(=O)Nc2ccc(Oc3ccnc(NC(=O)CN4CCOCC4)c3)c(Cl)c2Cl)n(-c2ccc(CO)cc2)n1 [Example 48] with pIC50 of 8 or above?
OUT: true (1)

IN: Does the reported pIC50 for COc1ccc(-n2nc(C(C)(C)C)cc2NC(=O)Nc2ccc(Oc3ccnc(NC(=O)NCCO)c3)c(Cl)c2Cl)cc1 [Example 66] fall at or above the 8 mark?
OUT: true (1)

IN: Threshold query (pIC50 >= 8) on Cc1ccc(-n2nc(C(C)(C)C)cc2NC(=O)Nc2ccc(OCc3ccnc(NC(=O)N4CCCC4)c3)c(Cl)c2Cl)cc1 [Example 19]
OUT: false (0)
